# Tested on: Escherichia coli 8739
# test: agar disc-diffusion antibacterial assay
# Assay type: cell-based
# condition.summary: E. coli 8739, disc loaded with 100 μg, 37 °C, 24 h, read-out: diameter of inhibition zone
property.label: zone of inhibition at 100 µg/disc (mm)
Give bare numbers, in mm.

compound: COc1ccc(-c2cc(-c3ccco3)nc3sc4c(N)c5c(nc4c23)CCCC5)cc1
zone of inhibition at 100 µg/disc (mm): 12
//
compound: COc1ccc(-c2cc(-c3ccco3)nc3sc4c(NC(=O)CCl)c5c(nc4c23)CCCC5)cc1
zone of inhibition at 100 µg/disc (mm): 13
//
compound: NC(=O)c1sc2nc(-c3ccco3)cc(-c3cccs3)c2c1N=C1CCCCC1
zone of inhibition at 100 µg/disc (mm): 12
//
compound: COc1ccc(-c2cc(-c3ccco3)nc3sc4c(N=Cc5cccs5)c5c(nc4c23)CCCC5)cc1 [Compound 12b]
zone of inhibition at 100 µg/disc (mm): 18
//
compound: Nc1c2c(nc3c1sc1nc(-c4ccco4)cc(-c4cccs4)c13)CCCC2
zone of inhibition at 100 µg/disc (mm): 15

# batch size: 3; output zone of inhibition at 100 µg/disc per entry
1. CC1(C)S[C@@H]2[C@H](NC(=O)[C@H](N)c3ccc(O)cc3)C(=O)N2[C@H]1C(=O)O [Amoxicillin, amoxicillin trihydrate, reference compound]
2. NC(=O)c1sc2nc(-c3ccco3)cc(-c3cccs3)c2c1N
3. CC(=O)CC(=O)Nc1c2c(nc3c1sc1nc(-c4ccco4)cc(-c4cccs4)c13)CCCC2

Result block:
1. 20
2. 19
3. 8

---

Please provide measured zone of inhibition at 100 µg/disc for the entries that follow.
# System: Bacillus cereus 33018
# test: agar disc-diffusion antibacterial assay
# Type: cell-based
# condition.summary: B. cereus 33018, disc loaded with 100 μg, 37 °C, 24 h, read-out: diameter of inhibition zone
Answers are plain numbers, in mm.

Items follow; give zone of inhibition at 100 µg/disc for each.
1. COc1ccc(-c2cc(-c3ccco3)nc3sc4c(N=Cc5cccs5)c5c(nc4c23)CCCC5)cc1 [Compound 12b]
2. COc1ccc(-c2cc(-c3ccco3)nc3sc4c(N)c5c(nc4c23)CCCC5)cc1
3. COc1ccc(-c2cc(-c3ccco3)nc3sc4c(NC(=O)Nc5ccccc5)c5c(nc4c23)CCCC5)cc1
4. O=C(CCl)Nc1c2c(nc3c1sc1nc(-c4ccco4)cc(-c4cccs4)c13)CCCC2
5. COc1ccc(-c2cc(-c3ccco3)nc3sc4c(NC(=O)CNN)c5c(nc4c23)CCCC5)cc1

Result block:
15
13
8
15
15

// batch mode: one zone of inhibition at 100 µg/disc value per listed entry
1. COc1ccc(-c2cc(-c3ccco3)nc3sc(C(N)=O)c(N=C4CCCCC4)c23)cc1
2. CC1(C)S[C@@H]2[C@H](NC(=O)[C@H](N)c3ccc(O)cc3)C(=O)N2[C@H]1C(=O)O [Amoxicillin, amoxicillin trihydrate, reference compound]

Result block:
[16, 19]

---

Give measured zone of inhibition at 100 µg/disc for each item. Keep answers brief.
# System: Escherichia coli 8739
# test: agar disc-diffusion antibacterial assay
# Format: cell-based
# condition.summary: E. coli 8739, disc loaded with 100 μg, 37 °C, 24 h, read-out: diameter of inhibition zone
# include the unit after the value

smi: CC1=NN=C(Nc2c3c(nc4c2sc2nc(-c5ccco5)cc(-c5cccs5)c24)CCCC3)C1
zone of inhibition at 100 µg/disc: 15 mm
//
smi: O=C(CCl)Nc1c2c(nc3c1sc1nc(-c4ccco4)cc(-c4cccs4)c13)CCCC2
zone of inhibition at 100 µg/disc: 16 mm
//
smi: COc1ccc(-c2cc(-c3ccco3)nc3sc4c(NC(=O)CN5CCN(C)CC5)c5c(nc4c23)CCCC5)cc1
zone of inhibition at 100 µg/disc: 20 mm

Query block: Assign zone of inhibition at 100 µg/disc to the following record: COc1ccc(-c2cc(-c3ccco3)nc3sc(C(N)=O)c(N)c23)cc1
Result block: 18 mm

---

A set of molecules tested on Bacillus cereus 33018, with measured MIC:
Numbers only, in µg/mL.

Would you please look over these solved cases?
molecule: CC1(C)S[C@@H]2[C@H](NC(=O)[C@H](N)c3ccc(O)cc3)C(=O)N2[C@H]1C(=O)O [Amoxicillin, amoxicillin trihydrate, reference compound]
unit.tag: µg/mL
MIC: 15.6
--
molecule: CC1=NN=C(Nc2c3c(nc4c2sc2nc(-c5ccco5)cc(-c5cccs5)c24)CCCC3)C1
unit.tag: µg/mL
MIC: 15.6
--
molecule: CC(=O)CC(=O)Nc1c2c(nc3c1sc1nc(-c4ccco4)cc(-c4cccs4)c13)CCCC2
unit.tag: µg/mL
MIC: 15.6
--
molecule: Nc1c2c(nc3c1sc1nc(-c4ccco4)cc(-c4cccs4)c13)CCCC2
unit.tag: µg/mL
MIC: 15.6

Now let's try a different one.
Query block: Using known records, supply MIC for COc1ccc(-c2cc(-c3ccco3)nc3sc4c(N=Cc5ccc(N(C)C)cc5)c5c(nc4c23)CCCC5)cc1 [Compound 12a]
Result block: 31.2

---

# System: Bacillus cereus 33018
property.label: MIC (µg/mL)
Numbers only, in µg/mL.

Use these answered entries as a reference point.
smi: COc1ccc(-c2cc(-c3ccco3)nc3sc(C(N)=O)c(N=C4CCCCC4)c23)cc1
unit.tag: µg/mL
MIC: 15.6

smi: COc1ccc(-c2cc(-c3ccco3)nc3sc4c(NC(=O)CNN)c5c(nc4c23)CCCC5)cc1
unit.tag: µg/mL
MIC: 15.6

smi: COc1ccc(-c2cc(-c3ccco3)nc3sc(C(N)=O)c(N)c23)cc1
unit.tag: µg/mL
MIC: 31.2

Query block: Note MIC for the molecule shown: COc1ccc(-c2cc(-c3ccco3)nc3sc4c(NC(=O)CNN=Cc5ccc(C)cc5)c5c(nc4c23)CCCC5)cc1
Result block: 62.5

---

Kindly supply the reported zone of inhibition at 100 µg/disc values for the records listed here.
# Tested on: Bacillus cereus 33018
# test: agar disc-diffusion antibacterial assay
# Assay type: cell-based
# condition.summary: B. cereus 33018, disc loaded with 100 μg, 37 °C, 24 h, read-out: diameter of inhibition zone
Kindly write the number and append the unit.

Study these solved cases before continuing.
compound: NNCC(=O)Nc1c2c(nc3c1sc1nc(-c4ccco4)cc(-c4cccs4)c13)CCCC2
property.label: zone of inhibition at 100 µg/disc
result: 11 mm
--
compound: COc1ccc(-c2cc(-c3ccco3)nc3sc4c(NC(=O)CNN=Cc5ccc(C)cc5)c5c(nc4c23)CCCC5)cc1
property.label: zone of inhibition at 100 µg/disc
result: 9 mm
--
compound: CC(=O)CC(=O)Nc1c2c(nc3c1sc1nc(-c4ccco4)cc(-c4cccs4)c13)CCCC2
property.label: zone of inhibition at 100 µg/disc
result: 16 mm

Batch request: zone of inhibition at 100 µg/disc for each of the following compounds.
1. COc1ccc(-c2cc(-c3ccco3)nc3sc4c(NC(=O)CCl)c5c(nc4c23)CCCC5)cc1
2. COc1ccc(-c2cc(-c3ccco3)nc3sc4c(NS(=O)(=O)c5ccccc5)c5c(nc4c23)CCCC5)cc1
3. COc1ccc(-c2cc(-c3ccco3)nc3sc4c(N=Cc5ccc(N(C)C)cc5)c5c(nc4c23)CCCC5)cc1 [Compound 12a]
4. COc1ccc(-c2cc(-c3ccco3)nc3sc4c(NC(=O)CNN=Cc5ccc(OC)c(OC)c5)c5c(nc4c23)CCCC5)cc1
5. COc1ccc(-c2cc(-c3ccco3)nc3sc4c(NC(=O)CN5CCN(C)CC5)c5c(nc4c23)CCCC5)cc1
6. Nc1c2c(nc3c1sc1nc(-c4ccco4)cc(-c4cccs4)c13)CCCC2

Result block:
1: 13 mm; 2: 9 mm; 3: 11 mm; 4: 9 mm; 5: 18 mm; 6: 16 mm

---

Here's a batch of compounds along with measured MIC for Staphylococcus aureus 25923.
Numbers only, in µg/mL.

Please give MIC for each item listed below.
1. NC(=O)c1sc2nc(-c3ccco3)cc(-c3cccs3)c2c1N
2. CC1=NN=C(Nc2c3c(nc4c2sc2nc(-c5ccco5)cc(-c5cccs5)c24)CCCC3)C1
3. COc1ccc(-c2cc(-c3ccco3)nc3sc4c(NC(=O)Nc5ccccc5)c5c(nc4c23)CCCC5)cc1
4. COc1ccc(-c2cc(-c3ccco3)nc3sc4c(NC(=O)CNN=Cc5ccc(OC)c(OC)c5)c5c(nc4c23)CCCC5)cc1
5. CC1(C)S[C@@H]2[C@H](NC(=O)[C@H](N)c3ccc(O)cc3)C(=O)N2[C@H]1C(=O)O [Amoxicillin, amoxicillin trihydrate, reference compound]
6. COc1ccc(-c2cc(-c3ccco3)nc3sc(C(N)=O)c(N)c23)cc1

Result block:
31.2
31.2
62.5
31.2
15.6
31.2

Query block: Answer with reported MIC of COc1ccc(-c2cc(-c3ccco3)nc3sc4c(N=Cc5ccc(N(C)C)cc5)c5c(nc4c23)CCCC5)cc1 [Compound 12a]
Result block: 31.2
